# method.notes: Biodistribution in BDL rats with and without excess cold compound
# Format: in vivo
# details: male, Sprague Dawley, rat, muscle, iv, total radioactivity, BDL rats, 15 days post-op, 1 hour post-injection, 10K-fold excess cold Compound 8; read-out: Activity in Muscle, Mean
# Experimental: On the appropriate day post surgery BDL and sham animals were removed and put under isoflurane anaesthesia, then each animal was injected with 0.3 ml intravenously (i.v.) via tail vein (˜3MBq). At the appropriate time point post-injection of the test item, each animal was re-anaesthetised with isoflurane, sacrificed by cervical dislocation weighed and the weight recorded via a barcode scanning system. […]
Numbered stars: 1 amine (or outer) side, 2 acyl side, 3 side chain; on linkers, the order of the positions; unused ones are H or OH. Bridge positions count the residues as written; N and C are the ends. Side chains are listed from the residue outwards. Peptide text beside a SMILES is read from it. * marks the point of attachment. X1 = C/C(=N\O)C(C)(C)NCCC(CCNC(C)(C)/C(C)=N/O)CCN*; Glutaryl = O=C(CCCC(=O)[*:2])[*:1]; X2 = NC(=O)COCC(=O)NCCOCCOCCOCCN*
measurement.name: tissue uptake dose at 1 h (%ID)
Numbers only here, please. The scale is %ID.

Consider the molecule C/C(=N\O)C(C)(C)NCCC(CCNC(=O)CCCC(=O)NCCCC[C@@H]1NC(=O)CSC[C@@H](C(=O)NCCOCCOCCOCCNC(=O)COCC(N)=O)NC(=O)[C@H](Cc2ccccc2)NC(=O)[C@@H]2CSSC[C@H](NC1=O)C(=O)N[C@@H](CCCNC(=N)N)C(=O)NCC(=O)N[C@@H](CC(=O)O)C(=O)N2)CCNC(C)(C)/C(C)=N/O (stereo partly shown) [Compound 8] ({CH2CO}-K([Glutaryl-X1])CRGDCFC-X2; disulfide 2-6; thioether N-8) and give its measured tissue uptake dose at 1 h.
9.61
